We begin with a simple list: items and their reported pIC50.
Biological target: HIV-integrase (Human immunodeficiency virus type 1 group M subtype B)
Construct: Recombinant integrase (0.26 ng) was incubated with the beads
Assay: HIV-Integrase Inhibition Activity (SPA bead integration assay with P33 labeled target DNA)
Type: biochemical
Details: recombinant integrase, class symbols; read-out: in vitro activity
pIC50: −log10 of the molar value.

- O=C(NC12CCC(CC1)Cn1c2nc(C(=O)NCc2ccc(F)cc2)c(O)c1=O)c1ccncc1: > 8.00
- O=C(NC12CCC(CC1)Cn1c2nc(C(=O)NCc2ccc(F)cc2)c(O)c1=O)C(=O)N1CCN(C(=O)c2ccco2)CC1: > 8.00
- O=C(NC12CCC(Cn3c1nc(C(=O)NCc1ccc(F)c(Cl)c1)c(O)c3=O)C2)OCc1ccccc1 (centres unmarked): > 8.00
- Cc1cc(CNC(=O)c2nc3n(c(=O)c2O)CC2CCC3(NC(=O)N(C)c3ccccn3)CC2)ccc1F: > 8.00
- CN(C)C(=O)C(=O)NC12CCC(CC1)Cn1c2nc(C(=O)NCCc2ccccc2)c(O)c1=O: 7.00 to 8.00

# input So what's the measured pIC50 for this one? `Cn1nc(C(C)(C)C)cc1C(=O)NC12CCC(CC1)n1c2nc(C(=O)NCc2ccc(F)cc2)c(O)c1=O`
# output > 8.00

# input So what's the measured pIC50 for this one? `CN(C)C(=O)C(=O)NC12CCC(CC1)Cn1c2nc(C(=O)NCc2ccccc2F)c(O)c1=O`
# output > 8.00

# input So what's the measured pIC50 for this one? CNC1c2nc(C(=O)NCc3ccc(F)cc3)c(O)c(=O)n2CC2CCC1C2 (centres unmarked)
# output < 7.00

# input So what's the measured pIC50 for this one? `CN(C(=O)c1cccnc1)C12CCC(CC1)Cn1c2nc(C(=O)NCc2ccc(F)cc2)c(O)c1=O`
# output > 8.00

# input So what's the measured pIC50 for this one? CN(C)C(=O)C(=O)NC12COC(CCn3c1nc(C(=O)NCc1ccc(F)cc1)c(O)c3=O)C2 (centres unmarked)
# output > 8.00
